Tested on: Staphylococcus aureus
Assay: Antibacterial activity against Staphylococcus aureus ATCC 25923 assessed as inhibition of bacterial growth incubated for 16 hrs by microdilution method
Type: functional
Items are presented alongside their recorded MIC.

[
  {
    "Molecule": "C/C(=C\\Cc1c(O)c(Cl)c(C)c(C=O)c1O)CC/C=C(\\C)[C@@H]1CC(=O)C(C)(C)O1 [ASCOFURANONE]",
    "Relation": "=",
    "MIC / µg/mL": 4
  },
  {
    "Molecule": "C/C(=C\\Cc1c(O)c(Cl)c(C)c(C=O)c1O)[C@H](O)C[C@@]1(C)[C@H](C)CCC(=O)[C@@H]1C",
    "Relation": "=",
    "MIC / µg/mL": 128
  },
  {
    "Molecule": "CC[C@@](C)(NC(=O)[C@H](CCC(N)=O)NC(=O)C(C)(C)NC(=O)[C@H](Cc1c[nH]c2ccccc12)NC(C)=O)C(=O)NCC(=O)NC(C)(C)C(=O)N[C@@H](C)C(=O)NC(C)(C)C(=O)NC(C)(C)C(=O)NCC(=O)N[C@@H](CCC(N)=O)C(=O)N[C@](C)(CC)C(=O)N1C[C@H](O)C[C@H]1C(=O)NC(C)(C)C(=O)N1CCC[C@H]1C(=O)N[C@H](CO)Cc1ccccc1",
    "Relation": "=",
    "MIC / µg/mL": 64
  },
  {
    "Molecule": "CC[C@@](C)(NC(=O)CNC(=O)[C@@](C)(CC)NC(=O)[C@H](CCC(N)=O)NC(=O)C(C)(C)NC(=O)[C@H](Cc1c[nH]c2ccccc12)NC(C)=O)C(=O)N[C@@H](C)C(=O)NC(C)(C)C(=O)NC(C)(C)C(=O)NCC(=O)N[C@@H](CCC(N)=O)C(=O)N[C@](C)(CC)C(=O)N1C[C@H](O)C[C@H]1C(=O)NC(C)(C)C(=O)N1CCC[C@H]1C(=O)N[C@H](CO)Cc1ccccc1",
    "Relation": "=",
    "MIC / µg/mL": 64
  },
  {
    "Molecule": "CC[C@@](C)(NC(=O)[C@H](CCC(N)=O)NC(=O)CNC(=O)C(C)(C)NC(=O)C(C)(C)NC(=O)[C@H](C)NC(=O)C(C)(C)NC(=O)CNC(=O)C(C)(C)NC(=O)[C@H](CCC(N)=O)NC(=O)C(C)(C)NC(=O)[C@H](Cc1c[nH]c2ccccc12)NC(C)=O)C(=O)N1C[C@H](O)C[C@H]1C(=O)NC(C)(C)C(=O)N1CCC[C@H]1C(=O)N[C@H](CO)Cc1ccccc1",
    "Relation": "=",
    "MIC / µg/mL": 128
  },
  {
    "Molecule": "CC[C@@](C)(NC(=O)[C@H](CCC(N)=O)NC(=O)C(C)(C)NC(=O)[C@H](Cc1c[nH]c2ccccc12)NC(C)=O)C(=O)NCC(=O)NC(C)(C)C(=O)N[C@@H](C)C(=O)NC(C)(C)C(=O)NC(C)(C)C(=O)NCC(=O)N[C@@H](CCC(N)=O)C(=O)NC(C)(C)C(=O)N1C[C@H](O)C[C@H]1C(=O)NC(C)(C)C(=O)N1CCC[C@H]1C(=O)N[C@H](CO)Cc1ccccc1",
    "Relation": ">",
    "MIC / µg/mL": 128
  },
  {
    "Molecule": "CC(/C=C/[C@@]1(C)[C@H](C)CCC(=O)[C@@H]1C)=C\\Cc1c(O)c(Cl)c(C)c(C=O)c1O [ASCOCHLORIN]",
    "Relation": "=",
    "MIC / µg/mL": 1
  }
]

====

// values below are reported MIC
System: Staphylococcus aureus
Test: Antibacterial activity against Staphylococcus aureus ATCC 29213 assessed as inhibition of bacterial growth incubated for 16 hrs by microdilution method
Type: functional

[
  {
    "Item Smiles": "C/C(=C\\Cc1c(O)c(Cl)c(C)c(C=O)c1O)CC/C=C(\\C)[C@@H]1CC(=O)C(C)(C)O1",
    "Assay Target": "Staphylococcus aureus",
    "MIC": "16 µg/mL"
  },
  {
    "Item Smiles": "CC[C@@](C)(NC(=O)[C@H](CCC(N)=O)NC(=O)C(C)(C)NC(=O)[C@H](Cc1c[nH]c2ccccc12)NC(C)=O)C(=O)NCC(=O)NC(C)(C)C(=O)N[C@@H](C)C(=O)NC(C)(C)C(=O)NC(C)(C)C(=O)NCC(=O)N[C@@H](CCC(N)=O)C(=O)N[C@](C)(CC)C(=O)N1C[C@H](O)C[C@H]1C(=O)NC(C)(C)C(=O)N1CCC[C@H]1C(=O)N[C@H](CO)Cc1ccccc1",
    "Assay Target": "Staphylococcus aureus",
    "MIC": "64 µg/mL"
  },
  {
    "Item Smiles": "CC[C@@](C)(NC(=O)CNC(=O)[C@@](C)(CC)NC(=O)[C@H](CCC(N)=O)NC(=O)C(C)(C)NC(=O)[C@H](Cc1c[nH]c2ccccc12)NC(C)=O)C(=O)N[C@@H](C)C(=O)NC(C)(C)C(=O)NC(C)(C)C(=O)NCC(=O)N[C@@H](CCC(N)=O)C(=O)NC(C)(C)C(=O)N1C[C@H](O)C[C@@H]1C(=O)NC(C)(C)C(=O)N1CCC[C@H]1C(=O)N[C@H](CO)Cc1ccccc1",
    "Assay Target": "Staphylococcus aureus",
    "MIC": "> 128 µg/mL"
  }
]
